# condition.summary: a range is the spread between reports
Below: a set of entries, each annotated with reported melting point.

Some solved cases for reference:
[
  {
    "compound": "C=C(c1ccccc1)c1ccccc1",
    "melting point": "6 to 8.2 °C"
  },
  {
    "compound": "O=C(O)Cc1cccc([N+](=O)[O-])c1",
    "melting point": "118 to 119 °C"
  },
  {
    "compound": "CCCCOC",
    "melting point": "-116 to -115 °C"
  },
  {
    "compound": "CC#CCC(C)C",
    "melting point": "-93 to -92.9 °C"
  }
]

QUERY: // melting point lookup, key: CC12CCC(C1)C(C)(C)C2O (stereo not given)
RESULT: 43.5 to 48 °C
